Notes on IC50 obtained with UniProt Q06124.
Sequence (Q06124 whole entry): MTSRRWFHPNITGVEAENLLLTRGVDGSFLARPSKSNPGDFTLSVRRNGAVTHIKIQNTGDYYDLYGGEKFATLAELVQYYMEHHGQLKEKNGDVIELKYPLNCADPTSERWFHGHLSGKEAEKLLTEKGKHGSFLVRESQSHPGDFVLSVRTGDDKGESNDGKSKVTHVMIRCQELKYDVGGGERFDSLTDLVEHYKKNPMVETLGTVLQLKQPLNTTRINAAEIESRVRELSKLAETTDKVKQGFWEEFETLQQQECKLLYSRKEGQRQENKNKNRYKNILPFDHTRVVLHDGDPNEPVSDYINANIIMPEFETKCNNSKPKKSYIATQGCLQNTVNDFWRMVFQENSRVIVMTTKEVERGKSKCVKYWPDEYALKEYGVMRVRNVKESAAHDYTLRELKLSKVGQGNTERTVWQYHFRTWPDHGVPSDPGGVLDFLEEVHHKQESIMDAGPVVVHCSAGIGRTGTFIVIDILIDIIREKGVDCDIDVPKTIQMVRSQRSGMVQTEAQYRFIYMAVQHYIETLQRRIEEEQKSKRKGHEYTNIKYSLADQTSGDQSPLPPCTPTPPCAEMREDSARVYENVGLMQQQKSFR
MEASURE: IC50 (nM)

{"COMPOUND": "C#Cc1ccc2c(c1)[C@@H](N)C1(CCN(c3cc(=O)n(-c4cccc(C#N)c4Cl)c(C)n3)CC1)C2", "ASSAY_TARGET": "UniProt Q06124", "MEASURE": "IC50", "VALUE_UNITS": "nM", "VALUE_MODIFIER": "=", "QUANTITATIVE_RESULT": 1}
{"COMPOUND": "C#Cc1ccc2c(c1)[C@@H](N)C1(CCN(c3cc(=O)n(-c4ccc(F)c(F)c4Cl)c(C)n3)CC1)C2 (atropisomer, axis not shown)", "ASSAY_TARGET": "UniProt Q06124", "MEASURE": "IC50", "VALUE_UNITS": "nM", "VALUE_MODIFIER": "=", "QUANTITATIVE_RESULT": 5}
{"COMPOUND": "Cc1nc(N2CCC3(CC2)Cc2ccc(SC4COC4)cc2[C@H]3N)cc(=O)n1-c1cccc(Cl)c1Cl", "ASSAY_TARGET": "UniProt Q06124", "MEASURE": "IC50", "VALUE_UNITS": "nM", "VALUE_MODIFIER": "=", "QUANTITATIVE_RESULT": 2}
{"COMPOUND": "Cc1nc(N2CCC3(CC2)Cc2ccc(C#CCN(C)C)cc2[C@H]3N)cc(=O)n1-c1cccc(Cl)c1Cl", "ASSAY_TARGET": "UniProt Q06124", "MEASURE": "IC50", "VALUE_UNITS": "nM", "VALUE_MODIFIER": "<", "QUANTITATIVE_RESULT": 0.5}
